Hello, the source for this data is the supplement of paper PMC9170038, in case you need it.

tested on: MS2 coat protein; test: apparent KD of MS2 coat protein; designed switch direction (-1 OFF switch, 1 ON switch): -1; higher = weaker reporter binding; settings: input ligand: FMN 200 uM
Would you please tag the item True when its apparent KD of MS2 coat protein is 90 nM or above, and False when it is below?

1. UAACUUCUAGUAAGGAUAUCGGUCCCAAGGGACAACGAGAAGGUACAUGAGGAUCACCCAUGUGAAAUAAGAAU [Mod of Zala 2 - Jieux - Brourd's Mod of Exclusion 4] (Eterna round: R97, puzzle: Brourd's mod of Exclusion 4): False
2. GUCACAUGGGUAUAGGAUCACAUGAGGAUCACCCAUGUGACUAACAAGCUUUUUGCUCGUCUUAUGUCUAUGUGAAG [Stov1/18-A1] (Eterna round: R97, puzzle: Sensor, turn-off variant 1): False
3. CAGUACUGAGGAUAUACAUGAGGAUCACCCAUGUUUUCCAGCUAGGAAACUAGCAAAUGUAGAAGGCAGUACUG [Salish 065 m5] (Eterna round: R97, puzzle: Exclusion 3): True
4. ACAUGAGGAUCACCCAUGUGAAACCAAUGGCUGACUUUGAGACAGGAUAUUCGUGCAUAUCAAACGAAGAAGGGUCAUUACUGG [Deportation 95 - Jieux - Exclusion NG 3] (Eterna round: R96, puzzle: Exclusion NG 3): False

Turning to the following sequence.
## Input Entry CGCUCACAUGAGGAUCACCCAUGUCAGGAUAUCUCAGUGCAUCCACACGGACGCAUCAAGAGAAGGGACAAAAC [Vinxlusion 3 - Jieux - Exclusion 1] (Eterna round: R97, puzzle: Exclusion 1) : is its apparent KD of MS2 coat protein no less than 90 nM?
## Output True

====

test system: MS2 coat protein; assay: apparent KD of MS2 coat protein; designed switch direction (-1 OFF switch, 1 ON switch): -1; higher = weaker reporter binding; settings: input ligand: FMN 200 uM
Examples of sequences with documented apparent KD of MS2 coat protein follow.
Provide the reading as a plain figure in nM.

Documented apparent KD of MS2 coat protein of CCGGCGUGGUGCGGUUGUCGUUCGACAUGAGGAUCACCCAUGUAGGAUAUGCGCGUGGUCGCGCCGCAGAAGGGCAUCGUUUGG [Random, 15% A] (Eterna round: R96, puzzle: Exclusion NG 3) : 10.7

Documented apparent KD of MS2 coat protein of GAUAGAGAGCAGGAUAUCUUAGAAAUGUAUUAUAGAGAAGGGCUCACAUGAGGAUCACCCAUGUGGUCCUAGAU [JL Dibiri mod 15] (Eterna round: R96, puzzle: Exclusion 6) : 94.3

Documented apparent KD of MS2 coat protein of GACCCGUCAGGAUAUACAUGAGGAUCACCCAUGUAAUCAGCGAUAGGACAAGGCUCACGUAGAAGGGACAGGGU [Eternabot (L1) Solution 33] (Eterna round: R97, puzzle: Exclusion 3) : 44.6

====

Examples of sequences with documented apparent KD of MS2 coat protein follow.
test system: MS2 coat protein; assay: apparent KD of MS2 coat protein; designed switch direction (-1 OFF switch, 1 ON switch): -1; higher = weaker reporter binding; conditions: input ligand: none
Provide the reading as a plain figure in nM.

Study these solved cases before continuing.
1) GCUCAACAUGAGGAUCACCCAUGUGAGGAUAUGCGAAUUUCAUCAAAAGAUGAAAUUUGCAGAAGGCACUGAGC [Omei Ex1 A35] (Eterna round: R97, puzzle: Exclusion 1): 16.5
2) UGAUUGUUUACCAGGUUAUACAUGAGGAUCACCCAUGUAGAUCCUACGUGCGCGUUGUACCGCUCGUCUUAUUGCCA [Sensor-V1 #79] (Eterna round: R97, puzzle: Sensor, turn-off variant 1): 21.3

Documented apparent KD of MS2 coat protein of GGUAUACAUGAGGAUCACCCAUGUCAGGAUAUGUAUGCAUAUGCCGAAAGGCAUAUGCUCAGAAGGGACUAUAU [AK-MS2ROC-r4-exclusion1-4.0] (Eterna round: R97, puzzle: Exclusion 1) : 32

Documented apparent KD of MS2 coat protein of AAAUACAAAGGAUAUACAUGAGGAUCACCCAUGUAGGUCAAUGCGCGGGCGAUGCCACGUAGAAGGUUGAAUAC [EX3 C.12] (Eterna round: R97, puzzle: Exclusion 3) : 24.1

Documented apparent KD of MS2 coat protein of GUAGAGUAAGGAUAUACUGAAUAGGAUAGAAUGGUUAGAAAGUAGAAGGUACAUGAGGAUCACCCAUGUAAUGU [Excluse me!!!! 19 - Jieux - Exclusion 4] (Eterna round: R96, puzzle: Exclusion 4) : 24

Documented apparent KD of MS2 coat protein of CCAGCGAGUGUGAGGAUAUGCUGGUCCUUGGAUCAGCAGAAGGCACAUGAGGAUCACCCAUGUGAGGACGUUGG [JL bmx4 3.31] (Eterna round: R96, puzzle: Brourd's mod of Exclusion 4) : 31.9

Documented apparent KD of MS2 coat protein of UGUGGACAUGAGGAUCACCCAUGUCAGCCGUGUCCACCGAGAGAGGAUAUUGGUCAACCAGGGACUAAGAAGGCUCAGAGCUGG [Eternabot solution 47] (Eterna round: R96, puzzle: Exclusion NG 3) : 46.4

Documented apparent KD of MS2 coat protein of ACCCAGUCAGGAUAUCCGGAGUUCCGCGAUGGCGGACGGUAGGAGAAGGGACAUGAGGAUCACCCAUGUAGAAA [EX4 B.17] (Eterna round: R97, puzzle: Exclusion 4) : 34.7

Documented apparent KD of MS2 coat protein of GCCUCACUUGAGGAUCACCCAAGUCAGGAUAUUCACUGAACUGCGUAACAGCUCGGCCGAAGAAGGGAUUCGGG [Leisatat] (Eterna round: R97, puzzle: Exclusion 1) : 78.5

Documented apparent KD of MS2 coat protein of AGCAAGCUUUAAAGAUCCUACAUGAGGAUCACCCAUGUGCUCGUCUUAUAACGUACUGUGACGAAAGUCACGGUACG [JL TOV1 3.33] (Eterna round: R97, puzzle: Sensor, turn-off variant 1) : 603

Documented apparent KD of MS2 coat protein of GCUCAACAUGAGGAUCACCCAUGUCAGGAUAUGCGAAUUUCAUCAAAAGAUGAAAUUUGCAGAAGGGACUAAGC [Omei Ex1 A32] (Eterna round: R97, puzzle: Exclusion 1) : 52.6

Documented apparent KD of MS2 coat protein of GAUCAUGCAGGAUAUACAGUAUCCAUGAAAACAUGGAUCUCACAUGAGGAUCACCCAUGUAGAAGGGCAUGAUC [Omei Ex2 A25] (Eterna round: R97, puzzle: Exclusion 2) : 41.4

Documented apparent KD of MS2 coat protein of AGUUGGCGAGGAUAUACAUGAGGAUCACCCAUGUGGUCCUGCGAUGGUGUCGCCCUUUGUAGAAGGCGCGGGUA [salish99_ex3_r4_055] (Eterna round: R97, puzzle: Exclusion 3) : 38.8

====

tested on: K4 kissing-loop RNA reporter; test: apparent KD of K4 kissing-loop reporter; higher = weaker reporter binding; conditions: Eterna round: R107; input ligand: none
Examples of sequences with documented apparent KD of K4 kissing-loop reporter follow.
Provide the reading as a plain figure in nM.

Documented apparent KD of K4 kissing-loop reporter of UACGUAGAGCGAGGAUAUCCUUCCCACGUCGAAGUACCGUGCUUGAUGGAGUGAUGUUCGAUCAGAGGAGAAGGUGCGAAACGUC [Flavin Switch Lower Fold Energy] : 724

Documented apparent KD of K4 kissing-loop reporter of AGUGCCUGCCUUAGCCUUCCCAUCAACUUCCGAGGACCGGUACGGCCGCCACUCGGCCAUCGGGCUAGUGAUGUUACCUGGUGGA [theeternabot_sameState_KL_Trp_A_50] : 327

Documented apparent KD of K4 kissing-loop reporter of UUUGGUUUCUCGGCCGCCACUCGUUGUCUAUCGGCUUCAGGGAUAUAGUGAUGUUAUGUAUAGAAGAGGACCGGGAGAAGGUUCU [ExTryptoB.Dx] : 347

Documented apparent KD of K4 kissing-loop reporter of AAAUUUUCAAGUGAUACCAGACAUUUCUAUUACAUUAAUAUAGCUAAGUGAUGUUUAGCAGUCCCUUGGCAGCACUAUUUAAUUA [JR_SSTheophyB_Sub014] : 253

Documented apparent KD of K4 kissing-loop reporter of UAAGAAUAAGUAGCAGUGAUGUUGCUACUGCGAGGACCGGUACGGCCGCCACUCGAGUCCUCGAAGCAUCACUGAACGAGGAAUA [whbob_SS_Tryp_A_m12] : 278

====

test system: K4 kissing-loop RNA reporter; assay: apparent KD of K4 kissing-loop reporter; higher = weaker reporter binding; conditions: Eterna round: R107; input ligand: theophylline 20 uM;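 note: bound reporter read as fluorescence of individual clusters on recovered sequencing chips by microscopy, with normalized cluster intensities fitted with a binding model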
endpoint: apparent KD of K4 kissing-loop reporter (µM)
Provide the reading as a plain figure in µM.

Study these solved cases before continuing.
1) AAGGCAAUUCGAGGAUAUCACAUACACUCCUUGAAUCAAGGAGUGAUGUUCCUUGAAGUGUAUGCAUGAGAAGGCGAAUUGCCUU [#05 K4 FMN B Same State]: 0.0993
2) UGUGAACAAAAGUAGAGUGGACCACUAUAGCGAGGACCGGUACGGCCGCCACUCGUGUAUGAAUUCAGUGAUGUUGAAAAGAGCU [whbob_EX_Tryp_A_t11]: 0.254
3) AACCGUGUGGCGGCCGCCACUAGUCUCCAGUGAUGUUGGAGAGAUCACGUAAGUGAUCUCCGACAUAGGACCGGGCCAUAUGGAA [Same State - Tryptophan B (Freestyle 24)]: 0.351

Please examine the following record next.
Documented apparent KD of K4 kissing-loop reporter of UACGUAGAGCGAGGAUAUCCUUCCCACGUCGAAGUACCGUGCUUGAUGGAGUGAUGUUCGAUCAGAGGAGAAGGUGCGAAACGUC [Flavin Switch Lower Fold Energy] : 0.622
